System: Escherichia coli TOP10
assay_explanation: shrunken log2 fold change of peptide-encoding DNA abundance (4.5 h post-induction vs induction); higher = less antimicrobial activity (less host growth inhibition)
condition_details: time post-induction: 4.5 h; library: site-saturation at positions 5, 18, 19, 20
Could you please report measured shrunken log2 fold change for the items listed next?
A bare number is all that is needed in reply.

Please look up its shrunken log2 fold change: RRIRLRPPRLPRPRPRPVKFPRP -0.316

Please look up its shrunken log2 fold change: RRIRHRPPRLPRPRPRPMYYPRP -0.681

Please look up its shrunken log2 fold change: RRIRCRPPRLPRPRPRPVFDPRP -0.198

Please look up its shrunken log2 fold change: RRIRGRPPRLPRPRPRPSQRPRP 0.181

Please look up its shrunken log2 fold change: RRIRGRPPRLPRPRPRPSYLPRP -0.479

Please look up its shrunken log2 fold change: RRIRHRPPRLPRPRPRPIWMPRP -0.0859

Please look up its shrunken log2 fold change: RRIRMRPPRLPRPRPRPTCDPRP 0.79

Please look up its shrunken log2 fold change: RRIRKRPPRLPRPRPRPVTGPRP -0.0771

Please look up its shrunken log2 fold change: RRIRVRPPRLPRPRPRPPVLPRP -0.201

Please look up its shrunken log2 fold change: RRIRARPPRLPRPRPRPRPFPRP 0.562

Please look up its shrunken log2 fold change: RRIRRRPPRLPRPRPRPQDQPRP 0.168

Please look up its shrunken log2 fold change: RRIRYRPPRLPRPRPRPTETPRP -0.00564

Please look up its shrunken log2 fold change: RRIRIRPPRLPRPRPRPTTAPRP -0.00422

Please look up its shrunken log2 fold change: RRIRTRPPRLPRPRPRPILHPRP -0.324

Please look up its shrunken log2 fold change: RRIRRRPPRLPRPRPRPKWQPRP -0.175

====

Tested on: Escherichia coli TOP10;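 also: peptides expressed intracellularly from a pBAD plasmid library in pooled LB shake-flask culture, induced with 0.3% L-arabinose, DNA abundance read by NGS, three biological replicates, DESeq2 with apeglm shrinkage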
assay_explanation: shrunken log2 fold change of peptide-encoding DNA abundance (4.5 h post-induction vs induction); higher = less antimicrobial activity (less host growth inhibition)
condition_details: time post-induction: 4.5 h; library: site-saturation at positions 5, 18, 19, 20
Criterion: shrunken log2 fold change meeting or surpassing -0.1. Met: y. Not met: n.

Item RRIRARPPRLPRPRPRPEMDPRP with shrunken log2 fold change of -0.1 or above? y

Item RRIRMRPPRLPRPRPRPTCTPRP with shrunken log2 fold change of -0.1 or above? y

Item RRIRARPPRLPRPRPRPMDNPRP with shrunken log2 fold change of -0.1 or above? n

Item RRIRTRPPRLPRPRPRPPWCPRP with shrunken log2 fold change of -0.1 or above? y

Item RRIRMRPPRLPRPRPRPHEFPRP with shrunken log2 fold change of -0.1 or above? y

Item RRIRIRPPRLPRPRPRPKVSPRP with shrunken log2 fold change of -0.1 or above? y

Item RRIRARPPRLPRPRPRPAQAPRP with shrunken log2 fold change of -0.1 or above? y

Item RRIRKRPPRLPRPRPRPCVPPRP with shrunken log2 fold change of -0.1 or above? n

Item RRIRSRPPRLPRPRPRPHFPPRP with shrunken log2 fold change of -0.1 or above? n

Item RRIRARPPRLPRPRPRPYHYPRP with shrunken log2 fold change of -0.1 or above? y

Item RRIRDRPPRLPRPRPRPAFIPRP with shrunken log2 fold change of -0.1 or above? n

Item RRIRWRPPRLPRPRPRPTRRPRP with shrunken log2 fold change of -0.1 or above? y

Item RRIRRRPPRLPRPRPRPQRTPRP with shrunken log2 fold change of -0.1 or above? y

Item RRIRHRPPRLPRPRPRPHHNPRP with shrunken log2 fold change of -0.1 or above? n

Item RRIRHRPPRLPRPRPRPCHIPRP with shrunken log2 fold change of -0.1 or above? n

Item RRIRKRPPRLPRPRPRPVVNPRP with shrunken log2 fold change of -0.1 or above? y

Item RRIRFRPPRLPRPRPRPPMFPRP with shrunken log2 fold change of -0.1 or above? y

Item RRIRMRPPRLPRPRPRPHTMPRP with shrunken log2 fold change of -0.1 or above? y

Item RRIRSRPPRLPRPRPRPGCIPRP with shrunken log2 fold change of -0.1 or above? y

Item RRIRGRPPRLPRPRPRPGAEPRP with shrunken log2 fold change of -0.1 or above? y

Item RRIRGRPPRLPRPRPRPVKFPRP with shrunken log2 fold change of -0.1 or above? y

Item RRIRARPPRLPRPRPRPKNLPRP with shrunken log2 fold change of -0.1 or above? n

Item RRIRSRPPRLPRPRPRPRQNPRP with shrunken log2 fold change of -0.1 or above? y

Item RRIRKRPPRLPRPRPRPSCIPRP with shrunken log2 fold change of -0.1 or above? y

Item RRIRMRPPRLPRPRPRPFTGPRP with shrunken log2 fold change of -0.1 or above? y

Item RRIRGRPPRLPRPRPRPKYHPRP with shrunken log2 fold change of -0.1 or above? y

Item RRIRDRPPRLPRPRPRPYEGPRP with shrunken log2 fold change of -0.1 or above? y

Item RRIRGRPPRLPRPRPRPIKSPRP with shrunken log2 fold change of -0.1 or above? y

Item RRIRYRPPRLPRPRPRPYPPPRP with shrunken log2 fold change of -0.1 or above? n

Item RRIRLRPPRLPRPRPRPPMFPRP with shrunken log2 fold change of -0.1 or above? n

Item RRIRKRPPRLPRPRPRPLAEPRP with shrunken log2 fold change of -0.1 or above? y

Item RRIRHRPPRLPRPRPRPVCQPRP with shrunken log2 fold change of -0.1 or above? n
